ASSAYED TARGET: MAP2K2 (human) (UniProt P36507)
Sequence (P36507 whole entry, looked up): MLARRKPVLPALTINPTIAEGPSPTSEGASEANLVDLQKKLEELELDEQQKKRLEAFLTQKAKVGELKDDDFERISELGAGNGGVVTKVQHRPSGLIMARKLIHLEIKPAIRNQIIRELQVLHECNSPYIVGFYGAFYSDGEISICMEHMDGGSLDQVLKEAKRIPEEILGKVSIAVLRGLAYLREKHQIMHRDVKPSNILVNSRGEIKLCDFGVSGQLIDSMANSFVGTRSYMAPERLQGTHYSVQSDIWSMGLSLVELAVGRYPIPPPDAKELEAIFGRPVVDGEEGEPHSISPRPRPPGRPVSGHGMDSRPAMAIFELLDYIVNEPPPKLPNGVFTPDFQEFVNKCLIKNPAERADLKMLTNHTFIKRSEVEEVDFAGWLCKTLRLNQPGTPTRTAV
ASSAY: radiometric filter-binding kinase assay
CONDITION INFO: compound 1.0 µM
ENDPOINT NAME: residual activity (%)

> print(dat)
                                    molecule                   assayed.target      endpoint.name  reported.result
 1                  Cc1ccc(=O)n(-c2ccccc2)c1  MAP2K2 (human) (UniProt P36507)  residual activity               58
 2        Oc1ccc2ccccc2c1SSc1c(O)ccc2ccccc12  MAP2K2 (human) (UniProt P36507)  residual activity               90
 3  COc1cc2ncn(-c3cc(OCc4ccccc4S(C)(=O)=O)c(C#N)s3)c2cc1OC  MAP2K2 (human) (UniProt P36507)  residual activity               75
 4   Cc1nc(-c2ccc(OCC(C)C)c(C#N)c2)sc1C(=O)O  MAP2K2 (human) (UniProt P36507)  residual activity               77
 5  O=C(Nc1ccccc1-c1cn2c(CN3CCNCC3)csc2n1)c1cnc2ccccc2n1  MAP2K2 (human) (UniProt P36507)  residual activity              109
 6  O=c1c(O)c(-c2ccc(O)c(O)c2)oc2cc(O)c(O)c(O)c12  MAP2K2 (human) (UniProt P36507)  residual activity               94
 7  CNC(=O)C1[C@H]2O[C@@](C)([C@@H]1N)n1c3ccccc3c3c4c(c5c6ccccc6n2c5c31)C(=O)NC4 (some centres not stated)  MAP2K2 (human) (UniProt P36507)  residual activity               14
 8  CCCCCc1ccc(/C=C/[C@H](O)[C@@H](CO)NC)cc1  MAP2K2 (human) (UniProt P36507)  residual activity              103
 9  COc1cc(C(=O)N2CCOCC2)c(F)cc1Nc1ncc(C(F)(F)F)c(NC2CC2)n1  MAP2K2 (human) (UniProt P36507)  residual activity              118
10  Cc1cc(NC(=O)c2cccc(NC(=O)/C=C/CN(C)C)c2)ccc1Nc1nccc(-c2cccnc2)n1  MAP2K2 (human) (UniProt P36507)  residual activity               92
11  NCC(=O)Nc1ccc(-n2nc(C(F)(F)F)cc2-c2ccc3c(ccc4ccccc43)c2)cc1  MAP2K2 (human) (UniProt P36507)  residual activity              123
12  NS(=O)(=O)OC[C@@H]1C[C@@H](n2ccc3c(N[C@H]4CCc5ccccc54)ncnc32)C[C@@H]1O  MAP2K2 (human) (UniProt P36507)  residual activity              104
13  COc1ccc(N(C(=O)Nc2c(C)cccc2C)c2cc(Nc3ccc(N4CCN(C)CC4)cc3)ncn2)c(OC)c1  MAP2K2 (human) (UniProt P36507)  residual activity               85
14  Cc1ccc(-c2ccc3c(ccc4sc5c(c43)NC[C@@H](C)NC5=O)n2)cn1  MAP2K2 (human) (UniProt P36507)  residual activity              108
15  NC1(c2ccc(-c3nc4ccn5c(=O)[nH]nc5c4cc3-c3ccccc3)cc2)CCC1  MAP2K2 (human) (UniProt P36507)  residual activity               99
16  NC(=O)c1cc(-c2ccnc(NC3CCCCC3)c2)nc(N2CCNCC2)c1  MAP2K2 (human) (UniProt P36507)  residual activity              123
17  COc1cc(O)c2c(c1)/C=C/C[C@H](O)[C@H](O)C(=O)/C=C\C[C@H](C)OC2=O  MAP2K2 (human) (UniProt P36507)  residual activity                3
18  c1ccc2c(-c3cnn4cc(-c5ccc(N6CCNCC6)cc5)cnc34)ccnc2c1  MAP2K2 (human) (UniProt P36507)  residual activity               91
19  CNc1nc(-c2ccc3c(N)n[nH]c3c2)cc(N2C[C@@H](C(=O)NC3CCCCC3)CC[C@H]2C)n1  MAP2K2 (human) (UniProt P36507)  residual activity              114
20  FC(F)(F)c1ccc(-c2ccc(Oc3cncc4sc(-c5nn[nH]n5)cc34)cc2)cc1  MAP2K2 (human) (UniProt P36507)  residual activity               87
21  O=C(NOC[C@H](O)CO)c1ccc(F)c(F)c1Nc1ccc(I)cc1Cl  MAP2K2 (human) (UniProt P36507)  residual activity               54
22  N#Cc1c(C2CCNCC2)cc(-c2c(O)cccc2OCC2CC2)nc1N  MAP2K2 (human) (UniProt P36507)  residual activity              107
